# Subject Of Test: T1, Anti-CD28 Fab (SEQ ID NOs: 696, 697)
# T1 construct: In the phage ELISA the Fab was biotinylated and captured on neutravidin coated plates
# Protocol Notes: phage binding ELISA on plate-captured anti-CD28 Fab pre-incubated with CD28 antigen (competitor: CD28), anti-M13 HRP detection
Reported Endpoint: Phage binding ELISA, Anti-CD28 Fab signal in the presence of CD28
// no unit, no text: just the number

[ask] Please look up its Phage binding ELISA, Anti-CD28 Fab signal in the presence of CD28: WCSAVFSYQWPVCL [Phage-1701]
[reply] 0.06

[ask] Please look up its Phage binding ELISA, Anti-CD28 Fab signal in the presence of CD28: PCSAGATYAWPYCL [Phage-1696]
[reply] 0.09

[ask] Please look up its Phage binding ELISA, Anti-CD28 Fab signal in the presence of CD28: TCAAGAVWQWPTCF [Phage-1695]
[reply] 0.06

[ask] Please look up its Phage binding ELISA, Anti-CD28 Fab signal in the presence of CD28: TCSAGATYKWPMCF [Phage-1690]
[reply] 0.07

[ask] Please look up its Phage binding ELISA, Anti-CD28 Fab signal in the presence of CD28: DCWWDSPYHWRVCL [Phage-1703]
[reply] 0.07

[ask] Please look up its Phage binding ELISA, Anti-CD28 Fab signal in the presence of CD28: TCAAGATYDWPSCL [Phage-1694]
[reply] 0.08

[ask] Please look up its Phage binding ELISA, Anti-CD28 Fab signal in the presence of CD28: TCSAGAQWEWPACL [Phage-1700]
[reply] 0.08

[ask] Please look up its Phage binding ELISA, Anti-CD28 Fab signal in the presence of CD28: TCSAGATYGWPACF [Phage-1691]
[reply] 0.07

[ask] Please look up its Phage binding ELISA, Anti-CD28 Fab signal in the presence of CD28: TCAAGAQLEWPWCF [Phage-1697]
[reply] 0.07

[ask] Please look up its Phage binding ELISA, Anti-CD28 Fab signal in the presence of CD28: TCAAGAAYTWPHCF [Phage-1699]
[reply] 0.11

[ask] Please look up its Phage binding ELISA, Anti-CD28 Fab signal in the presence of CD28: ECSAGAMWGWPACF [Phage-1693]
[reply] 0.09

[ask] Please look up its Phage binding ELISA, Anti-CD28 Fab signal in the presence of CD28: GCAAGAEYNWPTCL [Phage-1698]
[reply] 0.64

[ask] Please look up its Phage binding ELISA, Anti-CD28 Fab signal in the presence of CD28: SCSAGASYAWPMCI [Phage-1702]
[reply] 0.06

[ask] Please look up its Phage binding ELISA, Anti-CD28 Fab signal in the presence of CD28: ICAAGAGWPWPWCL [Phage-1692]
[reply] 0.1
